- test system: NAMPT (Homo sapiens)
- Sequence (P43490 whole entry): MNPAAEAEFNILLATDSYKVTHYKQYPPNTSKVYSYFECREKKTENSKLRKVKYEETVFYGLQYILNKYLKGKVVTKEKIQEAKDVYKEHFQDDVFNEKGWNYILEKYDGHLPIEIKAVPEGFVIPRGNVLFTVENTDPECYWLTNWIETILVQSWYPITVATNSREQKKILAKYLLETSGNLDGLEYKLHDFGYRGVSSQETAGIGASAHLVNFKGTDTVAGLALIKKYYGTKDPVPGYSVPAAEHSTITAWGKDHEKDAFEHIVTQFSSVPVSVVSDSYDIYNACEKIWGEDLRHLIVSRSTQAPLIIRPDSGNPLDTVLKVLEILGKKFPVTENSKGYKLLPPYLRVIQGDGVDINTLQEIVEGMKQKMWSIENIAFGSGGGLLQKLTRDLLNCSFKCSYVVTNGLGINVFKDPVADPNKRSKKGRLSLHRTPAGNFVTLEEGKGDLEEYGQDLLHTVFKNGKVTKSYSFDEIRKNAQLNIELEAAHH
Binarize IC50 at 1 nM; below is yes, at or above is no.

molecule="COC(C)CNC(=O)N(Cc1ccc(C#N)cc1)c1ncc(C(=O)NCCCn2ccnc2)s1 (centres unmarked) [Example 124]" test_system="NAMPT (Homo sapiens)" assigned_label=yes
molecule="COCCCN(C(=O)CCOC)c1ncc(C(=O)NCCCn2ccnc2)s1 [Example 176]" test_system="NAMPT (Homo sapiens)" assigned_label=yes
molecule="CC(C)C(CC(=O)O)NC(=O)N(Cc1ccc(C#N)cc1)c1ncc(C(=O)NCCCn2ccnc2)s1 (centres unmarked) [Example 168]" test_system="NAMPT (Homo sapiens)" assigned_label=no
molecule="N#Cc1ccc(C(=O)N(Cc2ccc(F)cc2)c2ncc(C(=O)NCCCn3ccnc3)s2)cc1 [Example 11]" test_system="NAMPT (Homo sapiens)" assigned_label=yes
molecule="COCCC(=O)N(CC1CCC(=O)N1)c1ncc(C(=O)NCCCn2ccnc2)s1 (centres unmarked) [Example 194]" test_system="NAMPT (Homo sapiens)" assigned_label=no
molecule="N#Cc1ccc(CN(C(=O)NCCC(=O)O)c2ncc(C(=O)NCCCn3ccnc3)s2)cc1 [Example 171]" test_system="NAMPT (Homo sapiens)" assigned_label=no
molecule="CC(C)CCN(Cc1ccc(Cl)cc1)c1ncc(C(=O)NCCCn2ccnc2)s1 [Example 59]" test_system="NAMPT (Homo sapiens)" assigned_label=no
molecule="COCCC(=O)N(Cc1c(F)cccc1F)c1ncc(C(=O)NCCCn2ccnc2)s1 [Example 112]" test_system="NAMPT (Homo sapiens)" assigned_label=no

###

pIC50: −log10 of the molar value.
Entries with reported pIC50 on NAMPT (Homo sapiens)
attribute measured: pIC50

molecule=COCCC(=O)N(CCC1OCCO1)c1ncc(C(=O)NCCCn2ccnc2)s1 test_system="NAMPT (Homo sapiens)" attribute_measured=pIC50 reading=9.48
molecule=CN(C)C(=O)CCNC(=O)N(Cc1ccc(C#N)cc1)c1ncc(C(=O)NCCCn2ccnc2)s1 test_system="NAMPT (Homo sapiens)" attribute_measured=pIC50 reading=7.77
molecule=C=CCN1CCN(CC(=O)N(Cc2ccc(F)cc2)c2ncc(C(=O)NCCCn3ccnc3)s2)CC1 test_system="NAMPT (Homo sapiens)" attribute_measured=pIC50 reading=9.27
molecule=COCCC(=O)N(Cc1cccc(C)c1)c1ncc(C(=O)NCCCn2ccnc2)s1 test_system="NAMPT (Homo sapiens)" attribute_measured=pIC50 reading=8.64
molecule="CC(CO)NC(=O)N(Cc1ccc(C#N)cc1)c1ncc(C(=O)NCCCn2ccnc2)s1 (centres unmarked)" test_system="NAMPT (Homo sapiens)" attribute_measured=pIC50 reading=8.94
molecule=COCC(COC)NC(=O)N(Cc1ccc(F)cc1)c1ncc(C(=O)NCCCn2ccnc2)s1 test_system="NAMPT (Homo sapiens)" attribute_measured=pIC50 reading=8.70
molecule=Cc1cc(C(=O)N(CCC(C)C)c2ncc(C(=O)NCCCn3ccnc3)s2)no1 test_system="NAMPT (Homo sapiens)" attribute_measured=pIC50 reading=9.77
molecule=CC(C)CC(=O)N(Cc1ccc(C#N)cc1)c1ncc(C(=O)NCCCn2ccnc2)s1 test_system="NAMPT (Homo sapiens)" attribute_measured=pIC50 reading=8.60
molecule="CCC(CNC(=O)N(Cc1ccc(F)cc1)c1ncc(C(=O)NCCCn2ccnc2)s1)OC (centres unmarked)" test_system="NAMPT (Homo sapiens)" attribute_measured=pIC50 reading=8.65
molecule=COCCC(=O)N(CCNC(=O)C(C)C)c1ncc(C(=O)NCCCn2ccnc2)s1 test_system="NAMPT (Homo sapiens)" attribute_measured=pIC50 reading=9.31
molecule=COCCC(=O)N(Cc1ccccn1)c1ncc(C(=O)NCCCn2ccnc2)s1 test_system="NAMPT (Homo sapiens)" attribute_measured=pIC50 reading=8.03
molecule="O=C(NCCCn1ccnc1)c1cnc(N(Cc2ccc(F)cc2)C(=O)CN2CCCC(O)C2)s1 (centres unmarked)" test_system="NAMPT (Homo sapiens)" attribute_measured=pIC50 reading=7.53
molecule=CCN(CC)CCCN(C(=O)CCOC)c1ncc(C(=O)NCCCn2ccnc2)s1 test_system="NAMPT (Homo sapiens)" attribute_measured=pIC50 reading=9.22
molecule=O=C(NCCCn1ccnc1)c1cnc(N(CC(=O)N2CCOCC2)Cc2ccc(F)cc2)s1 test_system="NAMPT (Homo sapiens)" attribute_measured=pIC50 reading=7.22
molecule=O=C(NCCCn1ccnc1)c1cnc(N2CCN(c3ccc(F)cc3)C2=O)s1 test_system="NAMPT (Homo sapiens)" attribute_measured=pIC50 reading=8.84
molecule=COCCC(=O)N(Cc1ccc(Cl)cn1)c1ncc(C(=O)NCCCn2ccnc2)s1 test_system="NAMPT (Homo sapiens)" attribute_measured=pIC50 reading=8.47
molecule="CCOC(=O)CC(C)NC(=O)N(Cc1ccc(C#N)cc1)c1ncc(C(=O)NCCCn2ccnc2)s1 (centres unmarked)" test_system="NAMPT (Homo sapiens)" attribute_measured=pIC50 reading=6.67

###

- test system: NAMPT (human, recombinant, C-terminally His-tagged) (Homo sapiens, UniProt P43490)
- protocol text: Time-Resolved Fluorescence Resonance Energy Transfer (TR-FRET) Binding Assay of NAMPT
- applied conditions: absence of substrates; 6.8 nM NAMPT, 200 nM probe, equilibrated 3 hours
The molecules listed here are annotated with their IC50.
attribute measured: IC50 (nM)

substance_smiles=COCCC(=O)N(Cc1ccc(OC)nc1)c1ncc(C(=O)NCCCn2ccnc2)s1 reading=1500
substance_smiles=CCN(CCOC)C(=O)N(Cc1ccc(F)cc1)c1ncc(C(=O)NCCCn2ccnc2)s1 reading=533
substance_smiles=CN(C)C(=O)CCNC(=O)N(Cc1ccc(C#N)cc1)c1ncc(C(=O)NCCCn2ccnc2)s1 reading=6040
substance_smiles=CC(C)OCCNC(=O)N(CCc1ccc(Cl)cn1)c1ncc(C(=O)NCCCn2ccnc2)s1 reading=2740

###

The compounds listed here are annotated with their pIC50.
- test system: NAMPT (Homo sapiens)
pIC50: −log10 of the molar value.
attribute measured: pIC50

compound="O=C(NCCCn1ccnc1)c1cnc(N(Cc2ccc(Cl)cn2)C(=O)C2CCOC2)s1 (centres unmarked)" reading=9.20
compound=COCCC(=O)N(Cc1cnc(C)cn1)c1ncc(C(=O)NCCCn2ccnc2)s1 reading=8.44
compound=COCCC(=O)N(Cc1ccnc(OC)c1)c1ncc(C(=O)NCCCn2ccnc2)s1 reading=8.91
compound=COCC(=O)N(Cc1ccc(F)cc1)c1ncc(C(=O)NCCCn2ccnc2)s1 reading=9.17
compound=N#Cc1ccc(CN(C(=O)CC2CCOCC2)c2ncc(C(=O)NCCCn3ccnc3)s2)cc1 reading=8.31
compound=C=CCN(CC=C)CCN(C(=O)CCOC)c1ncc(C(=O)NCCCn2ccnc2)s1 reading=9.23
compound=CC(C)C(=O)NCCNC(=O)N(Cc1ccc(C#N)cc1)c1ncc(C(=O)NCCCn2ccnc2)s1 reading=7.14
compound=COCCN(C(=O)Cc1ccccn1)c1ncc(C(=O)NCCCn2ccnc2)s1 reading=9.39

###

The compounds listed here are annotated with their IC50.
- test system: NAMPT (human, recombinant, C-terminally His-tagged) (Homo sapiens)
- protocol text: Time-Resolved Fluorescence Resonance Energy Transfer (TR-FRET) Binding Assay of NAMPT
- applied conditions: absence of substrates; 6.8 nM NAMPT, 200 nM probe, equilibrated 3 hours
attribute measured: IC50 (µM)

compound="CCOCC(O)CNC(=O)N(Cc1ccc(C#N)cc1)c1ncc(C(=O)NCCCn2ccnc2)s1 (stereo not drawn) [Example 143]" qualifier_operator=> reading=10
compound="COCCC(=O)N(Cc1ccc(C#N)cc1)c1ncc(C(=O)NCCCn2ccnc2)s1 [Example 62]" qualifier_operator== reading=0.81
compound="COCCC(=O)N(CCCN1CCCC1=O)c1ncc(C(=O)NCCCn2ccnc2)s1 [Example 197]" qualifier_operator== reading=9.21
compound="C=C[C@H](CO)NC(=O)N(Cc1ccc(C#N)cc1)c1ncc(C(=O)NCCCn2ccnc2)s1 [Example 148]" qualifier_operator=> reading=10
compound="CC(=O)NCC(C)CNC(=O)N(Cc1ccc(C#N)cc1)c1ncc(C(=O)NCCCn2ccnc2)s1 (stereo not drawn) [Example 141]" qualifier_operator=> reading=10
compound="CC(C)CCN(Cc1ccccc1F)c1ncc(C(=O)NCCCn2ccnc2)s1 [Example 55]" qualifier_operator=> reading=10
compound="CCOCCN1CCN(CC(=O)N(Cc2ccc(F)cc2)c2ncc(C(=O)NCCCn3ccnc3)s2)CC1 [Example 35]" qualifier_operator=> reading=10
compound="CC(CO)NC(=O)N(Cc1ccc(C#N)cc1)c1ncc(C(=O)NCCCn2ccnc2)s1 (stereo not drawn) [Example 129]" qualifier_operator=> reading=10
compound="COCCC(=O)N(CC1CCCCO1)c1ncc(C(=O)NCCCn2ccnc2)s1 (stereo not drawn) [Example 177]" qualifier_operator== reading=4.62
compound="CC(C)(CNC(=O)N(Cc1ccc(C#N)cc1)c1ncc(C(=O)NCCCn2ccnc2)s1)C(=O)O [Example 169]" qualifier_operator== reading=8.45
compound="N#Cc1ccc(CN(C(=O)NC2CC(C(=O)O)C2)c2ncc(C(=O)NCCCn3ccnc3)s2)cc1 (stereo not drawn) [Example 164]" qualifier_operator=> reading=10
compound="COCCC(=O)N(Cc1scnc1C)c1ncc(C(=O)NCCCn2ccnc2)s1 [Example 99]" qualifier_operator== reading=3.56
